# Tested on: LOX IMVI melanoma
# assay notes: NCI-60 one-dose screen, 48 h
# setup conditions: 10 µM unless noted
This is part of a sample that, as a whole, favours compounds with a hit. Of some 83,000 tested, about 20% had one in any assay. Calls of active or inactive are those of the source. The calls were made as follows: active = growth percent below 10; inactive = the rest.
Lab note: assign the record to one of Yes (active), No (inactive)

Before answering, review these 3 worked examples.
- Cc1ccc(C2CC(c3cccc(Nc4ccncc4)c3)=NN2c2ccccc2)cc1 (centres undefined): Yes
- CCCCCCCC(=O)Nc1nc2[nH]c(CN3CCN(Cc4cccc(I)c4)CC3)c(CN3CCN(Cc4cccc(I)c4)CC3)c2c(=O)[nH]1: Yes
- CCCCCCCCCCCCCCCC(=O)OC[C@@]1(O)C[C@@]23CC[C@@H]4C(C)(C)CCC[C@@]4(C)[C@@H]2CC[C@H]1C3: No

Query compound follows.
I would be grateful if you could indicate the recorded call for CC(=O)c1cc2c(N)c(C(=O)Nc3cncc4ccccc34)sc2nc1C .
No

====

# Test system: HCC-2998 colon
# assay notes: NCI-60 one-dose screen, 48 h (100 = growth as untreated, 0 = no growth, -100 = all killed)
# setup conditions: 10 µM unless noted
Compounds without any hit were thinned out: in the full panel of roughly 83,000, 20% have a hit.
Sorting guide: entries reporting growth beneath 70% go in the met pile, the rest go in the not met pile.

Before answering, review these 3 worked examples.
* CC(C)CN(C(=O)c1ccc(Cl)cc1)c1c(N)n(CC(C)C)c(=O)[nH]c1=O | not met
* CC(C)(O)C1CCCN1C(=O)c1ccccc1I (centres undefined) | not met
* Cc1cn(-c2cc(C(=O)Nc3cccc(C#Cc4cccc5[nH]nc(N)c45)c3)cc(C(F)(F)F)c2)cn1 | met

Query compound follows.
Please let me know if COc1ccc(C(=O)c2cc(C)c(OC)c(C)c2)c(OC)c1N(C(=O)C(Cl)Cl)C(=O)C(Cl)Cl shows growth below 70%.
met

====

# System: PC-3 prostate
# assay notes: NCI-60 one-dose screen, 48 h (100 = growth as untreated, 0 = no growth, -100 = all killed)
# setup conditions: 10 µM unless noted
About 83,000 compounds went through this panel and 20% of them were active in at least one assay; those are over-represented in the sample as a whole.
attribute measured: growth (%)
Write the number in % without appending the unit.

Field: example entries. Status: answers known.
* Nc1ncc(C#Cc2cncc(NC(=O)c3cccc(C(F)(F)F)c3)c2)c2cccnc12 | 49.9
* CCCC/C(=N\N=C(N)N)c1ccc(F)cc1 | 26.3
* Cn1c(COC(=O)N2CCCCC2)nc2c(N3CCOCC3)nc(-c3ccccc3)nc21 | -57.5
* COc1c(Cl)cc(Cl)c2ccc(C=C3C(=O)NC(=S)NC3=O)nc12 | 105
* O=C(N/N=C/c1ccc(F)cc1)c1ccccc1Nc1cccc(C(F)(F)F)c1 | 96.2
* CS(=O)(=O)OCCN(CCOS(C)(=O)=O)c1ccc(/C=N/Nc2ccc([N+](=O)[O-])cc2[N+](=O)[O-])cc1 | 67.3

API: value(readout=growth, system=PC-3 prostate) for record C(=N\Nc1ncc(-c2cc3cc4c(cc3o2)OCO4)s1)/c1c[nH]c2ccccc12
1.87

====

# System: HOP-92 NSCLC
# assay notes: NCI-60 one-dose screen, 48 h (100 = growth as untreated, 0 = no growth, -100 = all killed)
# setup conditions: 10 µM unless noted
About 83,000 compounds went through this panel and 20% of them were active in at least one assay; those are over-represented in the sample as a whole. The source made the active and inactive calls. The calls were made as follows: active = growth percent below 10; inactive = the rest.
attribute measured: growth

Field: example entries. Status: answers known.
* Cc1ccc(-c2csc(/N=C3\C(=O)Nc4ccccc43)n2)cc1 | -16.1% (active)
* COc1cc(C2NC(c3cc(OC)c(OC)c(OC)c3)C(C#N)(C#N)C2(C#N)C#N)cc(OC)c1OC (stereo not given) | 96.5% (inactive)
* COc1ccc(-c2nc(SCCC(C)C)nc(N/N=C(/C)c3ccc(C)cc3)c2C#N)cc1 | 62.2% (inactive)
* C#Cc1cccc(NC(=O)Nc2cccc(N=C=S)c2)c1 | 106% [8.25 µM] (inactive)
* COc1ccc(NC(=O)c2sc3nc(C)c(C(O)c4ccc(OC)cc4)cc3c2N)cc1 (stereo not given) | 57.6% (inactive)
* N#Cc1c(NC(=O)c2cccc(Br)c2)sc2c1CCCC2 | 86.2% (inactive)

Return reported growth; argument: CC(=O)CCSc1ccc(OC(C)=O)cc1
79.8% (inactive)

Return reported growth; argument: N/C(=N\N=C\c1cc2ccccc2[nH]1)N/N=C/c1cc2ccccc2[nH]1
76.6% (inactive)

Return reported growth; argument: Nc1ncc(C#Cc2cncc(NC(=O)c3cccc(C(F)(F)F)c3)c2)c2cccnc12
65.6% (inactive)

Return reported growth; argument: CCOc1ccc(/C=N/Nc2cc(C)nc3ccc(Cl)cc23)cc1
50.5% (inactive)
